- Assay info: Kinetic Solubility
- Assay type: physicochemical
- Cond: pH 7.4, aqueous buffer, kinetic from dmso stock; PBS pH7.4 (100 µM); read-out: Kinetic Solubility µM
Please note: met applies when solubility kinetic is 7 µM or greater, and not met applies otherwise.

Answered cases to consult:
[
  {
    "Compound string": "Fc1cc2cn[nH]c2cc1Nc1ccnc2ccc(Br)cc12",
    "Class name": "not met"
  },
  {
    "Compound string": "Brc1ccc2nccc(Nc3cccc4scnc34)c2c1",
    "Class name": "not met"
  },
  {
    "Compound string": "Fc1ccc2c(c1Nc1ccnc3ccc(Br)cc13)OCO2",
    "Class name": "met"
  },
  {
    "Compound string": "Brc1ccc2nccc(Nc3cccc4c3OCO4)c2c1",
    "Class name": "met"
  },
  {
    "Compound string": "COc1cc2nccc(Nc3cc(OC)c(OC)c(OC)c3)c2cc1OC",
    "Class name": "met"
  }
]

## Input Does Brc1ccc2nccc(Nc3cccc4ncsc34)c2c1 have a reported solubility kinetic of at least 7 µM?
## Output met

## Input Thanks! And Fc1ccc(F)c(Nc2ccnc3ccc(Br)cc23)c1 ?
## Output not met

## Input Next entry: Brc1ccc2nccc(Nc3cccc4oncc34)c2c1
## Output not met

## Input And what about the molecule Brc1ccc2nccc(Nc3cccc4cnoc34)c2c1 ?
## Output met

## Input Moving on to the next molecule: Brc1ccc2nccc(Nc3cccc4ncoc34)c2c1
## Output met

###

- Assay info: pharmacokinetic profiling in mice, oral dosing
- Assay type: in vivo
- Cond: male, C57BL/6, mouse, plasma, po, 10 mg/kg, C57BL/6 mice, 10 mg/kg po, 2 h pretreat 50 mpk ABT
In this section, each of the compounds is paired with its reported Tmax.
Respond numerically; units are h and should not be typed.

[
  {
    "Compound": "COc1cc(Nc2ccnc3ccc(Br)cc23)cc(OC)c1OC [Compound 1]",
    "Readout name": "Tmax",
    "Result units": "h",
    "Observed measurement": 0.5
  }
]

Alright, here's another compound for you.
## Input Need Tmax of COc1cc2nccc(Nc3cc(OC)c(OC)c(OC)c3)c2cc1OC [Compound 8] , thanks.
## Output 2

###

solubility kinetic: recorded values
- Assay info: Kinetic Solubility
- Type: physicochemical
- Cond: pH 7.4, aqueous buffer, kinetic from dmso stock; PBS pH7.4 (100 µM); read-out: Kinetic Solubility µg/mL
The response must be a number in µg/mL with no trailing unit.

Here's what some known entries look like.
[
  {
    "Compound string": "Fc1ccc(Nc2ccnc3ccc(Br)cc23)c(F)c1",
    "solubility kinetic [µg/mL]": 13.2
  },
  {
    "Compound string": "Fc1cc2cn[nH]c2cc1Nc1ccnc2ccc(Br)cc12",
    "solubility kinetic [µg/mL]": 0.7
  },
  {
    "Compound string": "Brc1ccc2nccc(Nc3cccc4ncoc34)c2c1",
    "solubility kinetic [µg/mL]": 8.8
  },
  {
    "Compound string": "Brc1ccc2nccc(Nc3cccc4scnc34)c2c1",
    "solubility kinetic [µg/mL]": 0.4
  },
  {
    "Compound string": "Brc1ccc2nccc(Nc3cccc4nsnc34)c2c1",
    "solubility kinetic [µg/mL]": 0.6
  },
  {
    "Compound string": "Brc1ccc2nccc(Nc3cccc4[nH]ncc34)c2c1",
    "solubility kinetic [µg/mL]": 1.7
  }
]

## Input Sample Brc1ccc2nccc(Nc3cccc4c3OCO4)c2c1 — what was its solubility kinetic?
## Output 2.5

## Input Do the same for Brc1ccc2nccc(Nc3cccc4cnoc34)c2c1 please
## Output 8.5

## Input One more compound: Brc1ccc2nccc(Nc3ccc4[nH]ncc4c3)c2c1
## Output 4.2

## Input // next record Brc1ccc2nccc(Nc3cccc4ncsc34)c2c1
## Output 3.1

## Input Okay, and COc1cc(Nc2ccnc3ccc(Br)cc23)cc(OC)c1OC ?
## Output 22.5

## Input Also, Fc1ccc(F)c(Nc2ccnc3ccc(Br)cc23)c1 please.
## Output 0.7

# credit: paper PMC6891286
